Origin of values: paper PMC6695355

Below, each of the molecules is paired with its reported Percentage of hemolysis at 256 μg/mL value.
System: human red blood cells (RBCs)
Experiment: Hemolysis assay
Type: cell-based
Conditions: red cells of human, 1 h, 256
Where a SMILES comes first, the peptide text is derived from it.
Recorded Metric: Percentage of hemolysis at 256 μg/mL (%)

- CC[C@H](C)[C@H](NC(=O)[C@H](CCCCN)NC(=O)[C@H](CCCCN)NC(=O)[C@@H](NC(=O)[C@@H](NC(=O)[C@H](CC(=O)O)NC(=O)[C@H](Cc1ccccc1)NC(=O)[C@H](CC(C)C)NC(=O)CN)[C@@H](C)CC)[C@@H](C)CC)C(=O)N[C@@H](C)C(=O)N[C@@H](CCC(=O)O)C(=O)N[C@@H](CO)C(=O)N[C@@H](Cc1ccccc1)C(N)=O [aurein 1.2] (H-GLFDIIKKIAESF-NH2): 58.8
- CC[C@H](C)[C@H](NC(=O)[C@H](CCCCN)NC(=O)[C@H](CCCCN)NC(=O)[C@@H](NC(=O)[C@@H](NC(=O)[C@H](CC(=O)O)NC(=O)[C@H](Cc1ccccc1)NC(=O)[C@H](C)NC(=O)CN)[C@@H](C)CC)[C@@H](C)CC)C(=O)N[C@@H](C)C(=O)N[C@@H](CCC(=O)O)C(=O)N[C@@H](CO)C(=O)N[C@@H](Cc1ccccc1)C(N)=O [Peptide L2A] (H-GAFDIIKKIAESF-NH2): 0.0
- CC[C@H](C)[C@H](NC(=O)[C@H](CC(=O)O)NC(=O)[C@H](Cc1ccccc1)NC(=O)[C@H](CC(C)C)NC(=O)CN)C(=O)N[C@H](C(=O)N[C@@H](CCCCN)C(=O)N[C@@H](CCCCN)C(=O)N[C@@H](C)C(=O)N[C@@H](C)C(=O)N[C@@H](CCC(=O)O)C(=O)N[C@@H](CO)C(=O)N[C@@H](Cc1ccccc1)C(N)=O)[C@@H](C)CC [Peptide I9A] (H-GLFDIIKKAAESF-NH2): 0.0
- CC[C@H](C)[C@H](NC(=O)[C@H](CCCCN)NC(=O)[C@H](C)NC(=O)[C@@H](NC(=O)[C@@H](NC(=O)[C@H](CC(=O)O)NC(=O)[C@H](Cc1ccccc1)NC(=O)[C@H](CC(C)C)NC(=O)CN)[C@@H](C)CC)[C@@H](C)CC)C(=O)N[C@@H](C)C(=O)N[C@@H](CCC(=O)O)C(=O)N[C@@H](CO)C(=O)N[C@@H](Cc1ccccc1)C(N)=O [Peptide K7A] (H-GLFDIIAKIAESF-NH2): 4.6
- CC[C@H](C)[C@H](NC(=O)[C@H](C)NC(=O)[C@H](CC(=O)O)NC(=O)[C@H](Cc1ccccc1)NC(=O)[C@H](CC(C)C)NC(=O)CN)C(=O)N[C@@H](CCCCN)C(=O)N[C@@H](CCCCN)C(=O)N[C@H](C(=O)N[C@@H](C)C(=O)N[C@@H](CCC(=O)O)C(=O)N[C@@H](CO)C(=O)N[C@@H](Cc1ccccc1)C(N)=O)[C@@H](C)CC [Peptide I5A] (H-GLFDAIKKIAESF-NH2): 1.1

---

remaining at 6 h, 0.125 mg/mL values by entry
Experiment: in vitro
Assay type: in vitro ADME
Settings: bovine, serum
Where a SMILES comes first, the peptide text is derived from it.
Recorded Metric: remaining at 6 h, 0.125 mg/mL (%)

- CC[C@H](C)[C@H](NC(=O)[C@H](C)NC(=O)[C@H](CC(=O)O)NC(=O)[C@H](Cc1ccccc1)NC(=O)[C@H](CC(C)C)NC(=O)CN)C(=O)N[C@@H](CCCCN)C(=O)N[C@@H](CCCCN)C(=O)N[C@H](C(=O)N[C@@H](C)C(=O)N[C@@H](CCC(=O)O)C(=O)N[C@@H](CO)C(=O)N[C@@H](Cc1ccccc1)C(N)=O)[C@@H](C)CC [Peptide I5A] (H-GLFDAIKKIAESF-NH2): 71
- CC[C@H](C)[C@H](NC(=O)[C@H](CCCCN)NC(=O)[C@H](CCCCN)NC(=O)[C@@H](NC(=O)[C@@H](NC(=O)[C@H](CC(=O)O)NC(=O)[C@H](Cc1ccccc1)NC(=O)[C@H](CC(C)C)NC(=O)CN)[C@@H](C)CC)[C@@H](C)CC)C(=O)N[C@@H](C)C(=O)N[C@@H](CCC(=O)O)C(=O)N[C@@H](CO)C(=O)N[C@@H](C)C(N)=O [Peptide F13A] (H-GLFDIIKKIAESA-NH2): 54
- CC[C@H](C)[C@H](NC(=O)[C@H](CCCCN)NC(=O)[C@H](CCCCN)NC(=O)[C@@H](NC(=O)[C@@H](NC(=O)[C@H](CC(=O)O)NC(=O)[C@H](Cc1ccccc1)NC(=O)[C@H](CC(C)C)NC(=O)CN)[C@@H](C)CC)[C@@H](C)CC)C(=O)N[C@@H](C)C(=O)N[C@@H](CCC(=O)O)C(=O)N[C@@H](C)C(=O)N[C@@H](Cc1ccccc1)C(N)=O [Peptide S12A] (H-GLFDIIKKIAEAF-NH2): 77
